# Target System: T1, ZFP SBS#1413 (synthetic)
# T1 chain: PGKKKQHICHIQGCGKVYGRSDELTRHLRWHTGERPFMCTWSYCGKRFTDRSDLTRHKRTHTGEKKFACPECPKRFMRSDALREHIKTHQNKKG
# Test Name: EMSA
# Condition Context: tags: MBP fusion
pKd: −log10 of the molar value.

{"Binder": "CTGGCCGCG (dsDNA) DNA 1: CTGGCCGCG DNA 2: CGCGGCCAG", "pKd": 9.82}
